FYI, the data here is from patent US20210253725A1.

Biological target: T1, CD134 protein (His-tagged, Sino Biological Inc. 10481-H08H) (human, UniProt P43489 29-216)
T1 construct: bought protein coated on ELISA plates; also called OX40; TNFRSF4; not shown: His tag
T1 sequence (looked up): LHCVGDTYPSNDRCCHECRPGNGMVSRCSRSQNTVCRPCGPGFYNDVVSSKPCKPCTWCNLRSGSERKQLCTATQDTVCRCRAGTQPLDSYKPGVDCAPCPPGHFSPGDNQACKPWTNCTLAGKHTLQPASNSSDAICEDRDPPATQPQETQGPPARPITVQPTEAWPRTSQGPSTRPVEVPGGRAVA
Experiment: ELISA, coated His-tagged CD134; also: test concentration or dose not given here
MEASURED_METRIC: ELISA [abs. corr.] (abs. corr.)
Kindly answer with a numeric value in abs. corr., unit omitted.

# example entries with known answers
# BINDER, ENDPOINT_UNIT, VAL
records = [
    ("P018.S.11.A.G03 (antibody, V domains shown, V regions on human Ig constant parts; also called AB134_43) VH: QSLEESGGRLVTPGTPLTLTCTASGFSLTNYAMNWVRQAPGKGLEWIGFINYDGNTYYANWAKGRFTISRTSTTVDLKITSPTTEDTATYFCARGGDGYTHIPDTFDPWGPGTLVTVSS VL: AFEMTQTPSSVSVAVGGTVTIKCQASQSIYSYLSWYQQKPGQPPKLLIYYASTLASGVPSRFVGSGSGTQFTLTISGVESADAATYYCQQGYSYSNIDNVFGGGTEMVVK", "abs. corr.", 2.11),
    ("P018.S.12.A.F03 (antibody, V domains shown, V regions on human Ig constant parts; also called AB134_79) VH: QSLEESGGRLVAPGTPLTLTCTVSGIDLSRYAMGWVRQAPGKGLEYIGIIDDNDITYFATWAKGRFTISKTSTTLGLKITSPTTEDTATYFCARTADYADYSFGLWGPGTLVTVSS VL: DVVMTQTPTSVSEPVGGTVTIKCQASENIGNYLAWYQQRPGQRPKLLIYAASNLASGVPSRFKGSGSGTEYALTISDLESDDAATYYCQCTYDDSEYFVFGGGTEVVVK", "abs. corr.", 2.45),
    ("P018.S.12.A.D03 (antibody, V domains shown, V regions on human Ig constant parts; also called AB134_68) VH: QERLVESGGGLVKPGASLTLTCTASGFSFSSGYDMCWVRQAPGKGLEWVGCIDTGTGTIYYASWAPGRFTISETSSTMVTLQMTSLTAADTATYFCARSVGGYDYAIDLWGPGTLVTVSS VL: AYDMTQTPASVEVPVGGTVTIKCQASQNIGSRLVWYQQKPGQSPKFLIYYASNLASGVSSRFKGSGSGTQFTLTISDVQSDNAATYYCQQTYSYSDVDDTFGGGTEVVVK", "abs. corr.", 1.34),
    ("P018.S.11.A.E06 (antibody, V domains shown, V regions on human Ig constant parts; also called AB134_37) VH: QSVEESGGRLVTPGTPLTLTCTASGFSLSSYYMSWVRQAPGKGLEWIGIIDTGSGDTWYATWAKGRFTISKTSTTVDLKMTSLTTEDTATYFCARVNPEFAHVWPYYFDLWGQGTLVTVSS VL: ALVMTQTPASVEVAVGGTVTIKCQASQSISSNFLSWYQQNPGQPPKLLIDRASTLESGVPSRFKGSGSGTEFTLTISDLESADAATYYCQQGDSLSNVENAFGGGTELVVK", "abs. corr.", 2.05),
]

Pending binder:
ELISA [abs. corr.] recorded for this binder, P018.S.04.A.D06 (antibody, V domains shown, V regions on human Ig constant parts; also called AB134_9) VH: QSLEESGGDLVKPGASLTLTCTASGFSFSSSYYMCWVRQAPGKGLEWIACIYTGDGASYYASWAKGRFTISKPSSTTVTLQVTSLTAADTATYFCGRGEYDNDWGFGLWGPGTLVTVSS VL: AYDMTQTPASVEVPVGGTVTINCQASEDISSYLSWYQQKPGQPPELLIYYASNLASGVSSRFKGSRSGTEFTLTISDLESADAATYYCQCSNYGGSWTFGGGTEVVVK , is 2.49
